The values you see were collected from patent US20130274178A1.

- tested_system: T1, HIV-1YU2 gp120 (HIV-1 strain YU-2, UniProt P35961 32-498, limits assumed)
- T1 construct: domain: gp120
- assay_notes: SPR competition; gp120 binding to mAb 17b
Where no end group is shown, it is not given here. [ ]: non-standard residue; d: D form.
Readings of IC50 for the listed binders
result_type: IC50 (nM)

[
  {
    "binder": "RINNI[Azp‑triazole‑ferrocene]WS-NH2 (Rink amide resin) [UM11]",
    "result_type": "IC50",
    "meas_value": 168
  },
  {
    "binder": "FNNI[Azp‑triazole‑ferrocene]WS-NH2 (Rink amide resin; also called FNNIPWS) [UM28]",
    "result_type": "IC50",
    "meas_value": 174
  },
  {
    "binder": "KNNI[Azp‑triazole‑ferrocene]WS (also called KNNIPWS) [UM27]",
    "result_type": "IC50",
    "meas_value": 197
  }
]
